Test system: Plasmodium berghei
Assay: Screen against P. berghei liver stage (PbLuc), transformed with Luciferase, at 10uM
Format: functional, HepG2
Details: tested at 10 uM
Out of some 69,000 compounds screened, about 8,600 (12%) showed an effect of 50% or more. This is one part of a sample in which strong results are shown more often than they occur.
Response field label: string, one of 1 (INHIBITION strictly below 30%) or 0.

Recorded results for 3 compounds are shown here.
| Compound | Answer Label |
| --- | --- |
| Cc1cc(NC(C)Cc2cccs2)n2nccc2n1 (configuration not stated) | 0 |
| Cc1cc(C)n(CCC(=O)N2CCCC(n3cncn3)C2)n1 (configuration not stated) | 0 |
| Cc1nc2cc(CNC(=O)C3CC(=O)N(C4CCCC4)C3)ccc2n1C (configuration not stated) | 0 |

Record CCN1CC(C(=O)NCc2ccc3c(c2)nc(C)n3C)CCC1=O (configuration not stated) : is its INHIBITION strictly below 30%?
1

Lab log: compare recorded INHIBITION with 30%; is it strictly lower for COCc1cc(NCCc2ccccn2)n2nccc2n1 ?
1

Problem: For the compound O=C(c1cc(C2CC2)on1)N1CCCC(n2cccn2)C1 (configuration not stated) , is INHIBITION under 30%?
1

Strictly below 30%: is that where INHIBITION of Cc1cc(C(=O)N2CCCC(n3cncn3)C2)no1 (configuration not stated) sits?
1

====

System: Plasmodium berghei
Experiment: Screen against P. berghei liver stage (PbLuc), transformed with Luciferase, at 10uM
Assay type: functional, HepG2
Settings: tested at 10 uM
The whole screen tested about 69,000 compounds, of which about 8,600 (12%) showed an effect of 50% or more. This is one part of a sample in which strong results are shown more often than they occur.
// reported INHIBITION for each item listed

Give the measured INHIBITION of CCOC1COC2(CCN(CC3CCOCC3)CC2)C1 (stereo unspecified) .
31.2%

Look up INHIBITION for this compound: CCc1cnc2c(c1NCc1ccncc1)c(=O)n(C)c(=O)n2C
2.3%

# query: INHIBITION of entry Cc1ccccc1-n1c(C)cc(=O)[nH]c1=O
33.4%

====

Test system: Plasmodium berghei
Assay: Screen against P. berghei liver stage (PbLuc), transformed with Luciferase, at 10uM
Type: functional, HepG2
Conditions: tested at 10 uM
The whole screen tested about 69,000 compounds, of which about 8,600 (12%) showed an effect of 50% or more. The sample as a whole holds a higher share of strong results than the screen did.
Assay Metric: INHIBITION (%)
All answers are understood in %, so give the number only.

| Compound | U | INHIBITION |
| --- | --- | --- |
| C[C@@H](CO)Nc1cc(-c2cn[nH]c2)ncn1 | % | 20.4 |
| Cc1nc[nH]c1C(=O)N1CCC2(CN(C)C(=O)O2)C1 (stereo unspecified) | % | -11.2 |
| CN1CC2(CCN(C(=O)c3ccc4c(=O)n(C)cnc4c3)C2)OC1=O (stereo unspecified) | % | 88.2 |
| CCCNc1cc(C(=O)N2CCOCC2)nc(C)n1 | % | 34.6 |
| O=C1CCCN1Cc1noc(-c2ccc(Cl)cc2)n1 | % | -66 |

# query: INHIBITION of entry Cc1nc(C2CN(C)CCO2)cc(N2CCC(C(N)=O)CC2)n1 (stereo unspecified)
-20.2
